# System: HEK-293T
# measurement-protocol: Incucyte cell viability with HEK293T; note: unitless GR value; below 1 slowed growth and below 0 cell loss
# Format: toxicity, cell-based
# test-settings: human, 24 h, 10 µM, compound concentration 10 uM, replicate number 1, timepoint 24 hours
Kindly supply the reported Growth Rate values for the records listed here.
Reply: number alone, nothing else.

Value wanted: Growth Rate (HEK-293T) of entry `Cc1cc(CN)cc(C)c1-c1ncn(C)c1-c1cncn1C`
0.89

Value wanted: Growth Rate (HEK-293T) of entry CCN(Cc1ccncc1)C(=O)C(CO)c1ccccc1 (stereo unspecified) [TROPICAMIDE]
0.88

Value wanted: Growth Rate (HEK-293T) of entry O=C(NCc1ccc(F)cc1)N1CCN2C(=O)OC(c3ccccc3)(c3ccccc3)C2C1 (stereo unspecified)
0.92

Value wanted: Growth Rate (HEK-293T) of entry `O=C1Nc2ccc(I)cc2/C1=C/c1cc(Br)c(O)c(Br)c1`
0.91

Value wanted: Growth Rate (HEK-293T) of entry `Cc1cnc(CNCC2(F)CCN(C(=O)c3ccc(F)c(Cl)c3)CC2)nc1`
0.91

Value wanted: Growth Rate (HEK-293T) of entry O=C(O)CCCCCC[C@H]1C(=O)NC(=O)N1CCC(O)C1CCCCC1 (stereo partly specified)
0.91
